Numbers sourced from PubChem BioAssay (NCI).

Reported values of TGI for individual entries
# Test system: MOLT-4 leukemia
# procedure.summary: NCI tumour cell line growth inhibition, 48 h
All answers are understood in µM, so give the number only.

// solved cases for TGI follow
- O=C(C1OC1c1ccc(F)cc1)C12CC3CC(CC(C3)C1)C2 (stereo not given): 35.3
- O=S1c2ccccc2N=C(c2cccc3ccccc23)CC1c1cccc2ccccc12 (stereo not given): 55.3
- CCCCC(CCCCCC(CCCC)C1NC(C)Cc2cc(OC)c(OC)cc21)C1NC(C)Cc2cc(OC)c(OC)cc21 (stereo not given): 4.22

What the record says about CCC[CH2][Sn]1([CH2]CCC)[O]CC(CN2CCCCC2)[O]1 (stereo not given) : TGI is 0.646
